# target: GRID2IP_2, A4D2P6
# Sequence (A4D2P6 272-370): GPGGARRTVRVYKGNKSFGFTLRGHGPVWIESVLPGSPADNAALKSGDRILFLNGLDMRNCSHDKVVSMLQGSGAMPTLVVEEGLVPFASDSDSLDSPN
# assay_explanation: holdup assay
# Set-up: key: below the threshold = too weak to quantify, mostly under pKd 3.1 to 4
# cond: plain residues with an end cap or a label only (N-terminal biotin on a linker: ttds)
Label satisfied when pKd is at or above 4; anything below gets not satisfied.

binder="SRSRRRETAL [HPV33-E6, P06427]" assigned_label=satisfied
binder="NPDALPETLV [ARHGAP6, O43182]" assigned_label="not satisfied"
binder="SGGKRKETLV [NET1, Q7Z628]" assigned_label="not satisfied"
binder="GARVSKETPL [MAPK12, P53778]" assigned_label="not satisfied"
binder="PSRDRKETSI [RALBP1, Q15311]" assigned_label="not satisfied"
binder="SSIDLWETAL [SLC15A5, A6NIM6]" assigned_label=satisfied
binder="KQVVPFSSSV [GDA, Q9Y2T3]" assigned_label="not satisfied"
